- System: MARK2;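 further: KINOMEscan kinase panel screen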
- Particulars: concentration: 1 μM, replicates: in singlicate; n = 1
Provide the recorded %Inh for the entries that follow.
Give bare numbers, in %.

Take a look at these entries with their results.
{"columns": ["Compound", "Unit Text", "%Inh"],
 "data": [
  ["Cc1nnc(-c2ccc3occ(-c4ccc(C(C)O)cc4)c3c2)o1 (stereo not drawn)", "%", 16],
  ["Cc1nnc(-c2ccc3ncc(-c4ccc(S(C)=O)cc4)n3c2)o1 (stereo not drawn)", "%", 20],
  ["COc1cc(Nc2nccc(N3CCC(NC(=O)c4cccc(NC(C)=O)c4)C3)n2)cc(OC)c1OC (stereo not drawn)", "%", 0]
]}

For every listed record, write down its %Inh.
1. CC(C)(C)n1cnc2c(N)ncnc21
2. c1ccc(-c2cc(-c3c[nH]nc3-c3ccccn3)ccn2)cc1
3. O=C(c1ccc(-c2cc(-c3c[nH]nc3-c3ccccn3)ccn2)cc1)N1CCOCC1
4. Cc1c(Cn2c(C)nn3c(=O)cc(N4CCOC(C)C4)nc23)cccc1C(F)(F)F (stereo not drawn)
5. Cn1cc(-c2ccc3c(c2)CCN3C(=O)Cc2ccccc2Cl)c2c(N)ncnc21
6. CC(C)Oc1ccc2c(-c3ccnc(Nc4ccc(N5CCN(C)CC5)cc4)n3)cnn2n1

A)
1: 1; 2: 0; 3: 21; 4: 0; 5: 0; 6: 72
